# Test system: breast cancer cells (MCF-7)
# assay-comment: Breast cancer cell proliferation-inhibition test
# Format: cell-based
# measurement-parameters: 2 μM sample, 0.1 nM estradiol, after 5-days incubation; Control 1 at 0 day = 1
endpoint-label: Relative Value of Living Cells

CC(C)=CCC/C(C)=C/Cc1c([C@@H]2CC(=O)c3c(O)cc(O)cc3O2)ccc(O)c1O :: 6.01 ± 0.25
CC(C)=CCC/C(C)=C/Cc1c(O)cc2c(c1O)C(=O)C[C@@H](c1ccc(O)c(O)c1)O2 :: 5.38 ± 0.44
CC(C)=CCC/C(C)=C/Cc1cc([C@@H]2CC(=O)c3c(O)cc(O)cc3O2)cc(O)c1O :: 6.59 ± 0.50
CC(C)=CCC/C(C)=C/Cc1c([C@@H]2CC(=O)c3c(cc(O)c(CC=C(C)C)c3O)O2)ccc(O)c1O :: 6.41 ± 0.53
O=C1C[C@@H](c2ccc(O)c(O)c2)Oc2cc(O)cc(O)c21 [Eriodictyol, eriodictyol, reference compound] :: 7.16 ± 0.36

----------
# Tested on: E. coli
# assay-comment: Antimicrobial activity test with Compounds 1 to 4
# Format: cell-based
# measurement-parameters: 20 ppm in standard agar medium
endpoint-label: Number of Bacteria, E. coli

CC(C)=CCC/C(C)=C/Cc1c(O)cc2c(c1O)C(=O)C[C@@H](c1ccc(O)c(O)c1)O2 :: 0 CFU/petri dish
CC(C)=CCC/C(C)=C/Cc1c([C@@H]2CC(=O)c3c(cc(O)c(CC=C(C)C)c3O)O2)ccc(O)c1O :: 6 CFU/petri dish
CC(C)=CCC/C(C)=C/Cc1cc([C@@H]2CC(=O)c3c(O)cc(O)cc3O2)cc(O)c1O :: >3000 CFU/petri dish
CC(C)=CCC/C(C)=C/Cc1c([C@@H]2CC(=O)c3c(O)cc(O)cc3O2)ccc(O)c1O :: >3000 CFU/petri dish
